# EXPERIMENTAL_SYSTEM: human recombinant β2 adrenoceptor (Homo sapiens)
# Construct: expressed in transfected cells
# TEST: cell-based
# Format: cell-based
# ASSAY_CONTEXT: EC50 (β1)/EC50 (β2)
Response key: met means sel (β1/β2) >= 70; not met means sel (β1/β2) < 70.

// below: answered molecules
| MOLECULE | ASSIGNED_CLASS |
| --- | --- |
| CC(C)(Cc1ccc(OCC[N+]23CCC(CC2)[C@@H](OC[C@@](O)(c2ccccc2)C2CCCCC2)C3)cc1)NC[C@H](O)c1ccc(O)c(NC=O)c1.[Br-] | met |
| COc1cc(C(C)NC[C@H](O)c2ccc(O)c(CO)c2)ccc1OCCC[N+]12CCC(CC1)[C@@H](OC[C@@](O)(c1ccccc1)C1CCCC1)C2.[Br-] (some centres unmarked) | met |
| CC(C)(Cc1ccc(OCC[N+]23CCC(CC2)[C@@H](OC[C@@](O)(c2ccccc2)C2CCCC2)C3)cc1)NC[C@H](O)c1cc(O)cc2c1OCC(=O)N2 | not met |
| O=c1ccc2c([C@@H](O)CNCCc3ccc(OCCC[N+]45CCC(CC4)[C@@H](OC[C@@](O)(c4ccc(Cl)cc4)C4CCCC4)C5)cc3)ccc(O)c2[nH]1.[Br-] | met |
| O=c1ccc2c([C@@H](O)CNCc3ccc(OCCC[N+]45CCC(CC4)[C@@H](OC[C@@](O)(c4ccccc4)C4CCCC4)C5)cc3)ccc(O)c2[nH]1 | met |

In: Please tell me: is the molecule O=c1ccc2c([C@@H](O)CNCCC[N+]34CCC(CC3)[C@@H](OC[C@@](O)(c3ccccc3)C3CCCC3)C4)ccc(O)c2[nH]1 at or over 70 in terms of sel (β1/β2)?
Out: not met

In: Please tell me: is the molecule OCc1cc([C@@H](O)CNCCOCCCOCC[N+]23CCC(CC2)[C@@H](OC[C@@](O)(c2ccccc2)C2CCCC2)C3)ccc1O.[Br-] at or over 70 in terms of sel (β1/β2)?
Out: met

----------
# EXPERIMENTAL_SYSTEM: human recombinant β2 adrenoceptor (Homo sapiens, UniProt P07550)
# Construct: expressed in transfected cells
# Sequence (P07550 whole entry): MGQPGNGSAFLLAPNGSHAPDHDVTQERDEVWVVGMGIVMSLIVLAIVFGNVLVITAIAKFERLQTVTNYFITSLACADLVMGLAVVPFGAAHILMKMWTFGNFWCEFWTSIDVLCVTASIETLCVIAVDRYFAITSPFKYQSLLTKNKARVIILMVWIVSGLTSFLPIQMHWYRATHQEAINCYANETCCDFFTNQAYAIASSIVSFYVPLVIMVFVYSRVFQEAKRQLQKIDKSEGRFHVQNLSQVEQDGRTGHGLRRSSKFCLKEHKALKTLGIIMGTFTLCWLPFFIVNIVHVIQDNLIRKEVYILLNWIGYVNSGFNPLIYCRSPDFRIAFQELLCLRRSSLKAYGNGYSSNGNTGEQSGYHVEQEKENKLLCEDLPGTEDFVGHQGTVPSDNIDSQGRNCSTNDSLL
# TEST: cell-based
# Type: cell-based
# ASSAY_CONTEXT: EC50 (β1)/EC50 (β2)
Response key: Y means sel (β1/β2) >= 70; N means sel (β1/β2) < 70.

// below: answered compounds
| COMPOUND | ASSIGNED_CLASS |
| --- | --- |
| O=CNc1cc([C@@H](O)CNCCCCOCC[N+]23CCC(CC2)[C@@H](OC[C@@](O)(c2ccccc2)C2CCCC2)C3)ccc1O [Compound 25] | N |
| CC(C)(NC[C@H](O)c1ccc(O)c(CO)c1)c1ccc(OCCC[N+]23CCC(CC2)[C@@H](OC[C@@](O)(c2ccccc2)C2CCCC2)C3)cc1.[Br-] [Compound 71] | Y |
| O=C1COc2c(cc(O)cc2C(O)CNCCCCOCCCCC[N+]23CCC(CC2)C(OCC(O)(c2ccccc2)C2CCCC2)C3)N1 (stereo not shown) [Compound 26] | N |

Turning now to a further record.
In: Please tell me: is the compound O=C1COc2c(cc(O)cc2[C@@H](O)CNCc2ccc(OCCC[N+]34CCC(CC3)[C@@H](OC[C@@](O)(c3ccccc3)C3CCCC3)C4)cc2)N1 [Compound 102] at or over 70 in terms of sel (β1/β2)?
Out: Y

----------
# EXPERIMENTAL_SYSTEM: human recombinant β2 adrenoceptor (Homo sapiens)
# Construct: expressed in transfected cells
# TEST: cell-based
# Format: cell-based
# ASSAY_CONTEXT: EC50 (β1)/EC50 (β2)
PROPERTY_MEASURED: sel (β1/β2)

Observe how each entry below is paired with its result.
| COMPOUND | sel (β1/β2) |
| --- | --- |
| COC1CCC([C@@](O)(CO[C@H]2C[N+]3(CCC(=O)Nc4ccc(CNC[C@H](O)c5ccc(O)c(NC=O)c5)cc4)CCC2CC3)c2ccccc2)C1.[Br-] (stereo partly drawn) [Compound 141] | 135.9 |
| OCc1cc([C@@H](O)CNCCc2ccc(OCC[N+]34CCC(CC3)[C@@H](OC[C@@](O)(c3ccccc3)C3CCCC3)C4)cc2)ccc1O [Compound 57] | 68.8 |
| CC(Cc1ccc(OCC[N+]23CCC(CC2)[C@@H](OC[C@@](O)(c2ccccc2)C2CCCC2)C3)cc1)NC[C@H](O)c1ccc(O)c(CO)c1.[Br-] (stereo partly drawn) [Compound 75] | 56.8 |
| CC(C)(NC[C@H](O)c1ccc(O)c2[nH]c(=O)ccc12)c1ccc(OCCC[N+]23CCC(CC2)[C@@H](OC[C@@](O)(c2ccccc2)C2CCCC2)C3)cc1 [Compound 84] | 238.8 |
| O=CNc1cc(C(O)CNCCOCCOCC[N+]23CCC(CC2)C(OCC(O)(c2ccccc2)C2CCCC2)C3)ccc1O (stereo not drawn) [Compound 46] | 68.9 |
| O=c1ccc2c([C@@H](O)CNCCOCCOCC[N+]34CCC(CC3)[C@@H](OC[C@@](O)(c3ccccc3)C3CCCC3)C4)ccc(O)c2[nH]1.[Cl-] [Compound 50] | 56.9 |
| OCc1cc(C(O)CNCCCCOCCCC[N+]23CCC(CC2)C(OCC(O)(c2ccccc2)C2CCCC2)C3)ccc1O (stereo not drawn) [Compound 27] | 78.9 |
| OCc1cc(C(O)CNCCOCCOCCOCC[N+]23CCC(CC2)C(OCC(O)(c2ccccc2)C2CCCC2)C3)ccc1O (stereo not drawn) [Compound 45] | 120.3 |

Response field sel (β1/β2) (human recombinant β2 adrenoceptor (Homo sapiens)) for item COc1cc(NC(=O)CC[N+]23CCC(CC2)[C@@H](OC[C@@](O)(c2ccccc2)C2CCCC2)C3)c(Cl)cc1CNC[C@H](O)c1ccc(O)c(NC=O)c1.[Br-] [Compound 138] : 228.3
